test system: Plasmodium falciparum; experiment: Antimalarial activity against chloroquine-sensitive Plasmodium falciparum D6; format: functional, organism-based
MEASURE NAME: IC50

* C/C=C/C/C=C/CCC(=O)[C@H]1O[C@H]1C(N)=O [CERULENIN] | 10.1 µM
* O=C(O)[C@@H]1[C@H](C(=O)O)[C@H]2CC[C@@H]1O2 [ENDOTHALL] | 7.8 µM
* COc1ccc(C[C@H]2NC[C@H](O)[C@H]2OC(C)=O)cc1 [ANISOMYCIN] | 4.6 µM

---

test system: Plasmodium falciparum; assay: Antimalarial activity against multidrug-resistant Plasmodium falciparum K1; type: functional, organism-based
pIC50: −log10 of the molar value.
Entries and their measured pIC50 follow.
MEASURE NAME: pIC50

• COC(=O)[C@]12OC[C@]34[C@H]([C@@H](O)[C@@H]1O)[C@@]1(C)C5=CC(=O)OC5=C[C@@H](C)[C@@H]1C[C@H]3OC(=O)[C@H](OC(C)=O)[C@@H]24 [NEOSERGEOLIDE] = 8.70
• CC[C@@]12CCCN3CC[C@]4(c5ccc(OC)c(O)c5N(C(C)=O)[C@@H]4CC1)[C@H]32 = 7.72
• Cc1c2ccncc2c(C)c2c1[nH]c1ccccc12 = 7.14
• CN1C2=CC(O)=c3ccccc3=NC2c2ccccc21 (centres undefined) = 6.10
